# assay-summary: NCI Yeast Anticancer Drug Screen. Data for the mlh1 rad18 strain (AID 175)
# protocol-conditions: S. cerevisiae mlh1 rad18 strain growth inhibition; at 50.0 µM
About 79,000 compounds went through this panel and 15% of them were active in at least one assay; those are over-represented in the sample as a whole. Activity calls are given as the source filed them. Rule as the data show it: active = growth inhibition above about 70%; inactive = the rest.
Choose the fitting class; nothing outside true (1) for active, false (0) for inactive is accepted.

CC/C(=C1\C=CC(=O)S1)C(CC)c1ccc(OC(C)=O)cc1 (configuration not stated) :: true (1)
c1csc(-c2nnc(C34CC5CC(CC(C5)C3)C4)o2)c1 :: false (0)
CCCCCCCCCCOC(=O)c1ccccn1 :: false (0)
CCc1cccc(C(C)C)c1N1C(=O)C(=O)C(c2nc3ccccc3s2)C(=O)C1=O :: true (1)
Nn1c2ccccc2c2ccccc21 :: true (1)
Cc1ccc(C(C)(C)c2ccc(C(=O)O)cc2)cc1 :: false (0)
Oc1cc2ccccc2c2c1ccc1ccccc12 :: true (1)
C/C(=N\NS(=O)(=O)c1ccc(C)cc1)c1cc2ccccc2n1C :: false (0)
CCCC(/C=N/N=C(N)N)=N\N=C(N)N :: false (0)
CC/C(C)=N/OC(=O)Nc1ccccc1 :: false (0)

In: Would you mind telling me which call this test gave CCCC(C1=C(O)CC(C)CC1=O)C1=C(O)CC(C)CC1=O (configuration not stated) ?
Out: false (0)

In: // same read-out, input: "NC(=O)C(=O)N/N=C/c1ccc([N+](=O)[O-])o1"
Out: false (0)

====

# assay-summary: NCI Yeast Anticancer Drug Screen. Data for the cln2 rad14 strain (AID 165);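 also: 0% = growth equal to vehicle treated cultures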
# protocol-conditions: S. cerevisiae cln2 rad14 strain, at 50.0 µM
Compounds without any hit were thinned out: in the full panel of roughly 79,000, 15% have a hit. Calls of active or inactive are those of the source. Rule as the data show it: active = growth inhibition above about 70%; inactive = the rest.
Pick one: Y (active), N (inactive)

O=C(OCc1ccccc1)N1N=NC2C1C1CC(OCc3ccccc3)(OCc3ccccc3)C2O1 (stereo not drawn) :: N
C=CS(=O)(=O)c1ccc(Cl)cc1 :: Y
S=c1nc(C(c2ccccc2)c2ccccc2)[nH][nH]1 :: N
NS(=O)(=O)c1ccc(Nc2c3ccccc3nc3c(C(=O)NC(CO)(CO)CO)cccc23)cc1 :: N

In: Per the assay record, what outcome was assigned to "CCCCNC(=S)N/N=C/c1cccc(C)n1" ?
Out: N

In: CCCCCCCCCCCCCCC/C([O-])=N/[N+](C)(C)CC(C)O (stereo not drawn) ?
Out: Y

In: Let us now turn to O=C1OC(OC/C(Br)=C(/Br)COC2OC(=O)C(Cl)=C2Cl)C(Cl)=C1Cl (stereo not drawn)
Out: Y

In: Now this one: "c1ccc2sc(SSN3CCOCC3)nc2c1"
Out: Y

In: Here is the next molecule: "O=S(O)CCCCCSSc1ccc(Cl)cc1"
Out: Y

====

# assay-summary: NCI Yeast Anticancer Drug Screen. Data for the sgs1 mgt1 strain (AID 161);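 also: 0% = growth of cultures given vehicle only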
# protocol-conditions: S. cerevisiae sgs1 mgt1 strain, at 5.0 µM (retest, dose inferred, filed as 0.5)
About 79,000 compounds went through this panel and 15% of them were active in at least one assay; those are over-represented in the sample as a whole. The source made the active and inactive calls. Rule as the data show it: active = growth inhibition above about 70%; inactive = the rest.
Please state which outcome applies, choosing from true (1) for active, false (0) for inactive

COc1ccc(C(=O)C(C(c2ccccc2)N2CCc3ccccc3C2)N2CCc3ccccc3C2)cc1 (configuration not stated) :: false (0)
COC(=Nc1ccccc1)SSC(C)C :: false (0)

In: Please indicate how the test categorized "O=C(Oc1c(I)ccccc1=O)c1ccc([N+](=O)[O-])cc1" .
Out: true (1)

In: What do we get for "O=NNc1ncccc1OCc1ccccc1" ?
Out: false (0)

In: // query: "C/C(=N\NC(=S)Nc1ccc(S(N)(=O)=O)cc1)c1ccccn1"
Out: false (0)

In: Next: "CN(C)CC(CN(C)C)C(=O)c1ccc2c(c1)OCO2"
Out: false (0)

In: Now the same for O=C1NC(O)c2cccc(Cl)c2O1 (configuration not stated)
Out: false (0)

In: What do you get for CCCCN(CC(O)c1ccc(Cl)cc1)c1ccccc1 (configuration not stated) ?
Out: false (0)

In: Request: "C[n+]1cccc2c1-c1ccccc1C2=O"
Out: false (0)

In: Now give it for "CCCC#CCCOC(=O)c1cc([N+](=O)[O-])cc([N+](=O)[O-])c1" too.
Out: false (0)

In: And the next one, COC1CCC(/C(C#N)=C/c2ccco2)CC1 (configuration not stated) ?
Out: false (0)

In: Do the same for "OC(Cc1ccccc1)(Cc1ccccc1)c1ccccc1" please
Out: false (0)

====

Field: growth inhibition. Provide a value for each of the molecules that follow.
# assay-summary: NCI Yeast Anticancer Drug Screen. Data for the mec2-1 strain (AID 157)
# protocol-conditions: S. cerevisiae mec2-1 strain, at 50.0 µM (retest, dose inferred, filed as 5.0), stronger effect = higher value
About 79,000 compounds went through this panel and 15% of them were active in at least one assay; those are over-represented in the sample as a whole.
One number for each entry, in %.

For orientation, consider the following solved cases.
CCc1ccc(C(=O)O)cc1 :: -2
Cc1c[nH]c(C(=O)O)c1-c1ccc2c(-c3ccccc3)nc3ccccc3n12 :: 99
CCOC(=O)c1ccc(-c2cccs2)n1C :: -6
NC(=Nc1ccccc1)SCc1ccc([N+](=O)[O-])cc1 :: 78
Cn1c2c(c3nc(N)nc(N)c3c1=O)CCc1ccccc1-2 :: 31
CCc1cc(/C=C\c2ccnc3ccccc23)ccc1N(C)C :: 91
CC(C)c1ccc(N2C(=O)C=CC2=O)cc1 :: 99
CCCCC1(CC)COC(c2ccccc2OC)OC1 (stereo not given) :: 88
C1CCC2CC3(CCNCC3)CCC2C1 (stereo not given) :: 55
CC1(Cc2ccccc2)CCCC(C=O)C1=O.[Cu+2] (stereo not given) :: 97

Each of the following entries comes with a recorded value; kindly state growth inhibition for each.
1. CCCCN(CCO)CCNc1ccc(C)c2sc3ccccc3c(=O)c12
2. CCCC1=C(c2ccccc2)C(O)(c2ccccc2)C(CCC)C1=O (stereo not given)
3. C=C1CC(Cn2cc(Br)c(=O)[nH]c2=O)(c2ccc(Br)cc2)OC1=O (stereo not given)
4. O=C1c2ccccc2CCC1C(O)(C(F)(F)F)C(F)(F)F (stereo not given)
5. CC1=Nc2ccccc2/C1=C\c1c(C)[nH]c2ccccc12
6. O=[N+]([O-])c1c(Cl)c(Cl)c(O)c(Cl)c1Cl

Out:
1: 99; 2: 47; 3: 98; 4: 7; 5: 98; 6: 83

====

# assay-summary: NCI Yeast Anticancer Drug Screen. Data for the rad50 strain (AID 155);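 also: 0% = growth of vehicle-only cultures of the same strain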
# protocol-conditions: S. cerevisiae rad50 strain growth inhibition; at 5.0 µM (retest, dose inferred, filed as 0.5); stronger effect = higher value
About 79,000 compounds went through this panel and 15% of them were active in at least one assay; those are over-represented in the sample as a whole.
reported-endpoint: growth inhibition (%)
One number for each entry, in %.

Examples with their reported growth inhibition follow.
CC(=O)N/N=C1/CC[C@@]2(C)C(=CC[C@H]3C4CCC(C(C)CCCC(C)C)[C@@]4(C)CCC32)C1(C)C (stereo not given in full) :: -23
COC(=O)c1cc(=O)n(-c2ccccc2C(F)(F)F)c(SC)n1 :: 24

For the 3 compounds below, give their growth inhibition values.
1. COc1ccc(CC2c3cc4c(cc3CCN2C)OCO4)c(C=O)c1OC (stereo not given)
2. O=C(Oc1ccc(O)c2ccccc12)c1ccccc1
3. CC(=O)[O-].O=C(N/N=C/c1ccccc1[O-])c1ccccc1.[Zn+2]

Out:
-2
0
-3

====

# assay-summary: NCI Yeast Anticancer Drug Screen. Data for the mec2-1 strain (AID 157)
# protocol-conditions: S. cerevisiae mec2-1 strain, at 50.0 µM (retest, dose inferred, filed as 5.0), stronger effect = higher value
The panel holds about 79,000 compounds, 15% with a hit somewhere; the sample as a whole holds those more often.
reported-endpoint: growth inhibition (%)
Give bare numbers, in %.

# annotated cases, reported growth inhibition shown
COC(=O)c1nc(NC#N)[nH]c(=O)c1CCCCCc1cnc(NC#N)nc1 :: -2
O=c1ccc2nc3ccccc3sc-2c1 :: 98
Cc1ccc(C(Cl)(c2ccc(C)cc2)c2ccc(C)cc2)cc1 :: 93
c1ccc(SSc2ccccc2)cc1 :: 18
Cc1cc(OC(=O)CCl)ccc1C(C)(C)C :: 13
O=C(O)CCCNc1ncc2c(n1)-c1ccccc1OC2 :: 9
S=C(NCCc1ccccn1)N/N=C/c1ccccn1 :: 99
COC1=CC(=O)C(C#CCOCc2ccccc2)=CC1=O :: 99

// input: 5 molecules below; output: growth inhibition for each
1. Clc1ccc(CN2COc3c(cc(Cl)c4cccnc34)C2)c(Cl)c1
2. Cc1cc(C2CCCCC2)n(O)c(=O)c1
3. COc1cccc2c1C(=O)c1c(O)c3c(c(O)c1C2=O)CC(O)(C(C)=O)CC3OC1CC(N/C(C)=C/C(C)=O)C(O)C(C)O1 (centres undefined)
4. Cc1ccc(NCCN(C)C)c2c(=O)c3ccc(O)cc3sc12
5. Clc1ccccc1C=Nc1cccc2ccccc12

Out:
1: 91; 2: 99; 3: 98; 4: 82; 5: -17

# return growth inhibition for each item in the list
1. CN=S(=O)(OCCCCCCCCCOS(=O)(=NC)c1ccc(C)cc1)c1ccc(C)cc1 (centres undefined)
2. CCN(CC)CCNc1ccc(OC)c2cccnc12
3. CCc1cccc(C(C)C)c1N1C(=O)C(=O)C(c2nc3ccccc3s2)C(=O)C1=O
4. CCOC(=O)/C(=C\c1cccc(OC)c1)C(C)=O
5. O=C1OC(OCC#CCOC2OC(=O)C(Cl)=C2Cl)C(Cl)=C1Cl (centres undefined)
6. CC(=O)OCCn1c2nc(=O)[nH]c(=O)c-2nc2cc(C)c(C)cc21

Out:
1: 6; 2: 9; 3: 23; 4: 96; 5: 99; 6: 18

Go through the items and report each one's growth inhibition.
1. CC(C)(c1cc(Br)c(O)c(Br)c1)c1cc(Br)c(O)c(Br)c1
2. S=c1[nH]c2cc(Cl)ccc2s1.[Zn+2]
3. O=C(O)c1c2c(cc3c1CC1(Cc4ccccc4C1=O)C3)CCC2 (centres undefined)
4. CC(C)(C)c1ccc(C(=O)n2c(=S)oc3ccc(Cl)cc32)cc1
5. CC1CCCCC12C(C#N)(C#N)C2(C#N)C#N (centres undefined)

Out:
1. 99
2. 96
3. 21
4. 91
5. 97
